Where a name gives a salt, the structure may show the parent alone.
reported property: melting point

Answered cases to consult:
> print(dat)
                                   compound         result
1  NCCCc1cc(C(=O)NCC23CC4CC(CC(C4)C2)C3)c(Cl)cn1 (as salt: hydrochloride) [Example 6]  150 °C (dec.)
2  C[C@@H](CO)NCCCc1cc(C(=O)NCC23CC4CC(CC(C4)C2)C3)c(Cl)cn1 (as salt: hydrochloride) [Example 10, dihydrochloride]  205 to 208 °C
3  CNCCCNCc1cc(C(=O)NCC23CC4CC(CC(C4)C2)C3)c(Cl)cn1 (as salt: hydrochloride) [Example 29, dihydrochloride]  285 to 287 °C
4  O=C(NCC12CC3CC(CC(C3)C1)C2)c1cc(CCCNC(CO)CO)ncc1Cl (as salt: hydrochloride) [Example 25, dihydrochloride]  201 to 203 °C
5  O=C(NCC12CC3CC(CC(C3)C1)C2)c1cc(CCCNCCNCCO)ncc1Cl (as salt: hydrochloride) [Example 23, dihydrochloride]  231 to 233 °C
6  O=C(NCC12CC3CC(CC(C3)C1)C2)c1cc(CCNCCCO)ncc1Cl (as salt: hydrochloride) [Example 33, dihydrochloride]  240 to 242 °C
7  CC(C)(O)CNCCCc1cc(C(=O)NCC23CC4CC(CC(C4)C2)C3)c(Cl)cn1 (as salt: hydrochloride) [Example 19, dihydrochloride]  236 to 238 °C

Please look at the following compound next.
Can you share its melting point? I mean this compound: O=C(NCC12CC3CC(CC(C3)C1)C2)c1cc(CCCNCCCO)ncc1Cl [Example 1]
84 to 85 °C
